# measurement_target: ADRA1A (Homo sapiens, UniProt P35348)
# Sequence (P35348 whole entry): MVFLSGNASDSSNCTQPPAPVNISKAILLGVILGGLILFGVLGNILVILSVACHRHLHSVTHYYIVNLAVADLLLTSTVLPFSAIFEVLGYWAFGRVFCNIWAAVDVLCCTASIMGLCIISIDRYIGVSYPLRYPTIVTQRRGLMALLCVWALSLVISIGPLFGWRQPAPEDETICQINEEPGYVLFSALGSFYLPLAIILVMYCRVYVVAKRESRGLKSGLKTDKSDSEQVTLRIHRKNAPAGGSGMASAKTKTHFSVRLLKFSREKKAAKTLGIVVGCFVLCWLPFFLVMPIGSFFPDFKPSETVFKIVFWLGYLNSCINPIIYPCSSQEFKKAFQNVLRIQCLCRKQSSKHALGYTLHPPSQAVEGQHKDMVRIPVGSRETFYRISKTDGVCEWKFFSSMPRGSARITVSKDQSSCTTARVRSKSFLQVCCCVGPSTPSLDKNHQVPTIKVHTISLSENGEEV
# test_method_notes: GPCR panel, cAMP or calcium FLIPR assays
# Assay type: cell-based
# run_conditions: agonist
measurement_name: EC50

Qu. Given the entry CC1CCCN1C(=O)c1nc(C(=O)NCC(C)(C)O)sc1-c1ccc(C(O)(C(F)(F)F)C(F)(F)F)c(Cl)c1Cl (stereo not shown) , report its measured EC50.
Ans. > 10 µM

---

# measurement_target: D1 (Homo sapiens, UniProt P21728)
# Sequence (P21728 whole entry): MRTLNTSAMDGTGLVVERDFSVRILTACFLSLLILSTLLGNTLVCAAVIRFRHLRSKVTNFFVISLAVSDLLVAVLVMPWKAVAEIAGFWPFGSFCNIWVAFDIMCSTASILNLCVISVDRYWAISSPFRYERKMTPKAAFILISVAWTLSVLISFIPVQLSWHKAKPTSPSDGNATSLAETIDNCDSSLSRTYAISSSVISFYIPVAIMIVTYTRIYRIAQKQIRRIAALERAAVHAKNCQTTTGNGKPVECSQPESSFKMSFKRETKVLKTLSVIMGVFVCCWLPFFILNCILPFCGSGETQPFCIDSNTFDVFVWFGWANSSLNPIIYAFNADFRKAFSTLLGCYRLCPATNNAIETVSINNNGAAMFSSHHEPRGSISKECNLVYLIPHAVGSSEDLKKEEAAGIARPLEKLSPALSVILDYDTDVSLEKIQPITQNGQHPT
# test_method_notes: GPCR panel, cAMP or calcium FLIPR assays
# Assay type: cell-based
# run_conditions: antagonist
measurement_name: IC50

Qu. Given the entry CC1CCCN1C(=O)c1nc(C(=O)NCC(C)(C)O)sc1-c1ccc(C(O)(C(F)(F)F)C(F)(F)F)c(Cl)c1Cl (stereo not shown) , report its measured IC50.
Ans. > 12.5 µM

Sourced from paper PMC8155022
